Record form. Attribute: Fu. Fill in for each entry.
Assay: Fraction unbound in cynomolgus monkey plasma at 1 mg/kg, po administered as cassette dose incubated for 16 to 24 hrs by equilibrium dialysis based LC-MS analysis
Assay type: ADME, organism-based, Macaca fascicularis
Conditions: in vivo, time 16-24 hrs

molecule=CCCCN(c1nc2c(NC(C)=O)cccc2o1)[C@H](C)c1ccc(-c2ccccc2-c2nnn[nH]2)cc1 result="0.102 fraction (unitless)"
molecule=CCCCN(c1nc2c(C(=O)NS(C)(=O)=O)cccc2o1)[C@H](C)c1ccc(-c2ccccc2-c2nnn[nH]2)cc1 result="0.103 fraction (unitless)"
molecule=CCCCN(c1nc2c(C(=O)O)cccc2o1)[C@H](C)c1ccc(-c2cc(Cl)ccc2-c2nc(=O)o[nH]2)cc1 result="0.0135 fraction (unitless)"
molecule=CCCCN(c1nc2ccccc2o1)[C@H](C)c1ccc(-c2ccccc2-c2nnn[nH]2)cc1 result="0.0713 fraction (unitless)"
molecule=C[C@H](c1ccc(-c2cc(Cl)ccc2-c2nc(=O)o[nH]2)cc1)N(CC1CC1)c1nc2c(C(=O)O)cccc2o1 result="0.0108 fraction (unitless)"
molecule=CCCCN(c1nc2c(C(=O)NC)cccc2o1)[C@H](C)c1ccc(-c2ccccc2-c2nnn[nH]2)cc1 result="0.0975 fraction (unitless)"
molecule=CCCCN(c1nc2c(C(=O)O)cccc2o1)[C@H](C)c1ccc(-c2ccccc2-c2nnn[nH]2)cc1 result="0.0285 fraction (unitless)"

Next, consider the following compound.
Q. I would be grateful if you could share the reported Fu for C[C@H](c1ccc(-c2cc(F)ccc2-c2nc(=O)o[nH]2)cc1)N(CC1CC1)c1nc2c(C(=O)O)cccc2o1 .
A. 0.00977 fraction (unitless)
